- Tested on: M14 melanoma
- assay_text: NCI tumour cell line growth inhibition, 48 h

compound	TGI
O=C(C1=C(C(=O)c2ccccc2)SC2(S1)C(C(=O)c1ccccc1)=C(C(=O)c1ccccc1)Sc1c2ssc1=O)c1ccccc1	> 100 µM
Cn1nc(C(F)(F)F)c(-c2ccc(Cl)c(C(F)(F)F)c2)c1-c1ccc(OCc2ccc(Cl)cc2)cc1O	6.85 µM
CC(=O)O[C@H]1C#C/C=C\C#CC[C@@H]2C(=O)N(C(=O)OC(C)(C)C)[C@@H]12	> 100 µM
COc1ccc(-c2oc(=O)ccc2C#Cc2cc(OC)c(OC)c(OC)c2)cc1O	> 100 µM
CCOC(=O)c1cc2c(OC(C)=O)ccc(OC(C)=O)c2s1	3.26 µM
C=C(C=O)C1CC(=O)C(C(=O)OC)[C@@H]2O[C@@](C)(CC2=O)C[C@@H]2OC(=O)[C@]3(O[C@@H]23)[C@@H](C(=O)OC)C1 (some centres undefined)	30.4 µM
Cc1cnc[nH]c1=O	> 100 µM
O=C(c1ccc2ccccc2c1)C1S(=O)(=O)OCCOS1(=O)=O	> 100 µM
COc1ccc(-c2ccc3c(NC(=O)C4CC4)n[nH]c3n2)cc1	> 25 µM
CCCCCCCCCCCCn1c(C)nc2ccccc21	26.6 µM
CCCCc1c2c(nc3c1CCc1cc4c(nc1-3)-c1nc3c(c(CCCC)c1CC4)CCC/C3=C\c1ccccc1)/C(=C/c1ccccc1)CCC2	> 100 µM
Cn1c(=O)c2c(-c3ccccc3)onc2n(C)c1=O	> 100 µM
OCC1OC(n2cnc3cccnc32)CC1O (centres undefined)	> 100 µM
CN(C)CCCNc1nn2c(=O)c3ccccc3nc2c2ccccc12	24.5 µM

====

- System: RXF 393 renal
- assay_text: NCI tumour cell line growth inhibition, 48 h
Reported GI50 is given for each of the following compounds.
property_measured: GI50

>>> print(df.to_string())
                                   compound     value
0  CN1/C(=C\C(I)C(I)C2=[N+](C)c3ccccc3C2(C)C)C(C)(C)c2ccccc21 (stereo not drawn)  0.497 µM
1  Cc1ccc2c(c1)C(=O)c1c-2n(CCCN)c(=O)c2cc([N+](=O)[O-])ccc12  0.627 µM
2         CC1(C)N=C(N)N=C(N)N1c1cccc(C#N)c1   4.33 µM
3  COc1ccc(OC)c(-c2nc3sccn3c2/C=C2/C(=O)Nc3ccc(Cl)cc32)c1   27.6 µM
4  CCN1CCN(c2nc(NNC(=O)Cc3ccccc3)nc(N3CCN(C(c4ccccc4)c4ccccc4)CC3)n2)CC1   1.92 µM
5  CCN(CC)CCN1C(=O)c2c(c(C)c3c(oc4cc(O)ccc43)c2C)C1=O   1.33 µM
6  Cl.[Pt].[c-]1ccccc1-c1ccccn1.c1ccc(P(c2ccccc2)C([PH+](c2ccccc2)c2ccccc2)[PH+](c2ccccc2)c2ccccc2)cc1   1.48 µM
7      N#Cc1c(NC(=O)c2ccccc2)sc2c1CCC(=O)C2   1.17 µM

====

- System: CCRF-CEM leukemia
- assay_text: NCI tumour cell line growth inhibition, 48 h

molecule	TGI
NC(Cc1cc(I)c(O)c(I)c1)C(=O)O (centres undefined)	> 500 µM
C=C(C=O)C1CC(=O)C(C(=O)OC)[C@@H]2O[C@@](C)(CC2=O)C[C@@H]2OC(=O)[C@]3(O[C@@H]23)[C@@H](C(=O)OC)C1 (some centres undefined)	> 100 µM
Cc1c[nH]c2c1C13CC1CN(C(=O)c1cc4cc(NC(=O)c5cc6ccccc6o5)ccc4[nH]1)C3=CC2=O (centres undefined)	0.0682 µM
C=CN1C(=O)OC(c2ccccc2)C1c1ccccc1 (centres undefined)	> 100 µM
CC(=O)O[C@H]1C#C/C=C\C#CC[C@@H]2C(=O)N(C(=O)OC(C)(C)C)[C@@H]12	6.77 µM
O=C(C1=C(C(=O)c2ccccc2)SC2(S1)C(C(=O)c1ccccc1)=C(C(=O)c1ccccc1)Sc1c2ssc1=O)c1ccccc1	> 100 µM
Cc1cc(C)cc(-n2c3nc(=O)n(C)c(=O)c-3nc3ccccc32)c1	61 µM
CCc1nnc(-n2c(C)nc3cc(Cl)ccc3c2=O)s1	56.7 µM
Nc1ccc(-c2nc3ccc4[nH]ncc4c3c3c2CCCC3)cc1F	12.2 µM
O=C(Nn1c(-c2ccccc2)nc2ccccc2c1=O)c1ccccn1	> 100 µM
CN(C(=O)C1(C(=O)C=[N+]=[N-])CC1)c1ccccc1	> 100 µM
CN1CCn2c(Br)ccc2C1=O	> 100 µM
OC(c1ccc(Cl)cc1)(c1ccc(Cl)cc1)C(O)(c1ccc(Cl)cc1)c1ccc(Cl)cc1	> 100 µM
COc1ccc(C(O)c2ccc3c(c2)OCO3)cc1 (centres undefined)	> 100 µM
CCOC(=O)c1ccc2nc(NC(=O)COC(=O)CSc3nc(C)cc(C)n3)sc2c1	15.5 µM
CCC1C(C)c2c([nH]c3ccccc23)C2C(=O)N(c3ccccc3)C(=O)C21 (centres undefined)	71.9 µM
COc1cc(C)c(C(=O)O[C@H]2[C@H](O[C@H]3[C@@H](O)COC(O[C@H]4C[C@H]5[C@@H]6CC=C7C[C@@H](O)CC[C@]7(C)[C@H]6CC[C@]5(C)[C@H]4[C@H](C)C(=O)CCC(C)C)[C@@H]3OC(C)=O)OC[C@@H](O)[C@@H]2O)c(C)c1 (some centres undefined)	0.102 µM
c1ccc2c(CNCCCCCCNCc3cccc4ccccc34)cccc2c1	9.62 µM
COc1ccc2c(c1)CCC1C2CC[C@@]2(C)C1CC[C@@]2(O)CNC(=O)/C=C/c1ccc(O)c(OC)c1 (some centres undefined)	> 100 µM

====

- Tested on: NCI-H23 lung
- assay_text: NCI tumour cell line growth inhibition, 48 h
Entries and their measured TGI follow.
property_measured: TGI

>>> print(df.to_string())
                                chem_smiles   target_desc  property_measured     value
0  Clc1nc(-[n+]2ccc(-c3ccncc3)cc2)nc(Nc2ccccc2)c1Cl  NCI-H23 lung                TGI  > 100 µM
1               Cc1cc2ccccc2n1CC(=O)NCC(C)C  NCI-H23 lung                TGI  > 100 µM
2  CC1(C)CCC[C@]23C(=O)O[C@](O)(C(=O)C4=C[C@@](C)(/C=C/CCCc5ccc6ccc7cccc8ccc5c6c78)CC[C@@]42O)[C@@H]13  NCI-H23 lung                TGI  0.376 µM

====

- System: A549 NSCLC
- assay_text: NCI tumour cell line growth inhibition, 48 h
Output yes (1) for TGI not less than 40 µM; output no (0) otherwise.

>>> print(df.to_string())
                                    molecule    class
 0  Cn1nc(C(F)(F)F)c(-c2ccc(Cl)c(C(F)(F)F)c2)c1-c1ccc(OCc2ccc(Cl)cc2)cc1O   no (0)
 1  Nc1ccc(-c2nc3ccc4[nH]ncc4c3c3c2CCCC3)cc1F   no (0)
 2  COc1ccc(C2OC(=O)c3c2ccc2ccccc32)c(C)c1 (configuration not stated)  yes (1)
 3  CN(C(=O)C1(C(=O)C=[N+]=[N-])CC1)c1ccccc1  yes (1)
 4  C=CN1C(=O)OC(c2ccccc2)C1c1ccccc1 (configuration not stated)  yes (1)
 5  COc1cc2cc(C(=O)N3CC(CCl)c4c3cc(N)c3ccccc43)[nH]c2cc1OCCN(C)C (configuration not stated)   no (0)
 6  O=[N+]([O-])c1cccc([N+](=O)[O-])c1S(=O)(=O)c1ccccc1  yes (1)
 7                 CC#C[C@@]1(O)CCCC[C@@H]1O  yes (1)
 8  COC(=O)c1sc(=S)sc1SCc1ccccc1CSc1sc(=S)sc1C(=O)OC  yes (1)
 9  O=C1C2c3[nH]c4ccccc4c3[C@@H]3CCCCCCCCCCC3C2C(=O)N1c1ccccc1 (some centres not stated)  yes (1)
10  Cc1ccc(S(=O)(=O)N(/N=C(\N)Oc2ccc(Cl)cc2)C(=N)Oc2ccc(Cl)cc2)cc1  yes (1)

====

- System: DU-145 prostate
- assay_text: NCI tumour cell line growth inhibition, 48 h; in the data active = GI50 below about 0.43 µM; inactive = the rest
Classes used: active, inactive

compound	class
CN(C)c1ccc(/C=C2\C[C@H]3[C@@H]4CC=C5C[C@@H](N6CCCC6)CC[C@]5(C)[C@H]4CC[C@]3(C)[C@H]2O)cc1	inactive
N=C(N)c1ccc(-c2ccc(-c3ccccc3)s2)cc1F	inactive
Nc1ncnc2c1c(C(F)(F)F)cn2[C@@H]1O[C@H](CO)[C@@H](O)[C@H]1O	active
COc1ccc(-c2nn(-c3cccc(Cl)c3)cc2C=C(C#N)C#N)cc1	inactive
Cn1nc(C(F)(F)F)c(-c2ccc(Cl)c(C(F)(F)F)c2)c1-c1ccc(OCc2ccc(Cl)cc2)cc1O	inactive
O=C(/C=C/c1ccc(C(F)(F)F)cc1)c1ccc(Nc2nc(NCCO)nc(NCCO)n2)cc1	inactive
COc1cc(C)c(C(=O)O[C@H]2[C@H](O[C@H]3[C@@H](O)COC(O[C@H]4C[C@H]5[C@@H]6CC=C7C[C@@H](O)CC[C@]7(C)[C@H]6CC[C@]5(C)[C@H]4[C@H](C)C(=O)CCC(C)C)[C@@H]3OC(C)=O)OC[C@@H](O)[C@@H]2O)c(C)c1 (stereo partly drawn)	inactive
CN(C)[C@@H]1C(=O)C(C(N)=O)=C(O)[C@@]2(O)C(=O)C3=C(O)c4c(O)cc(CN5CCc6ccccc6C5)c(Cl)c4C[C@H]3C[C@@H]12	inactive
Cc1ccc2c(c1)C(=O)c1c-2n(CCCN)c(=O)c2cc([N+](=O)[O-])ccc12	active
CCN1CCN(c2nc(NNC(=O)Cc3ccccc3)nc(N3CCN(C(c4ccccc4)c4ccccc4)CC3)n2)CC1	inactive
O=C(c1ccccc1Nc1ccnc(C(F)(F)F)c1)N1CCN(c2cccc(Cl)c2)CC1	inactive
Nc1ccc(-c2nc3ccc4[nH]ncc4c3c3c2CCCC3)cc1F	inactive
CCN(CC)CCN1C(=O)c2c(c(C)c3c(oc4cc(O)ccc43)c2C)C1=O	inactive
COc1ccc(OC)c(-c2nc3sccn3c2/C=C2/C(=O)Nc3ccc(Cl)cc32)c1	inactive
O=C1c2[nH]cc(CN3CCNCC3)c2C(=O)c2c1c(O)c1ccccc1c2O	inactive
CN1/C(=C\C(I)C(I)C2=[N+](C)c3ccccc3C2(C)C)C(C)(C)c2ccccc21 (stereo not drawn)	active
CN(C)CCCNc1nn2c(=O)c3ccccc3nc2c2ccccc12	inactive
CCCCCCCCCCCCn1c(C)nc2ccccc21	inactive
